Values from the supplement of paper PMC9170038

tested on: K4 kissing-loop RNA reporter; test: apparent KD of K4 kissing-loop reporter; higher = weaker reporter binding; conditions: Eterna round: R107; input ligand: none;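 also: bound reporter read as fluorescence of individual clusters on recovered sequencing chips by microscopy, with normalized cluster intensities fitted with a binding model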
Below: a set of entries, each annotated with reported apparent KD of K4 kissing-loop reporter.

| construct-sequence | subject-of-test | apparent KD of K4 kissing-loop reporter [nM] |
| --- | --- | --- |
| CGCCGCAAGGCGAGCGCUCCCACUCCGGAAGGAGCGCCCGGAAGGGCAGGUAGGUCGCCGGAGUGAUGUUCCGGUGGAGGGCUCG [#2 Exclusion - Arginine A Attempt #13 (Inspired by Omei)] | K4 kissing-loop RNA reporter | 334 |
| UUUUUCCCGCAGGAUACCAGCAACCAAACGUCAUGCGAAGUGAUGUUUCGCUUACGGUAGUGCCCUUGGCAGCCUUCGGUAGGGU [thingy] | K4 kissing-loop RNA reporter | 183 |
| AGAUUCGACACGGCCGCCACUUCCGGUGGCUGGUGUCAUGGUGCGCGUGAGUGAUGUUUAUGUGGGAGGACCGGGUGUUGAGUCU [whbob_Ex_Tryp_B_w42] | K4 kissing-loop RNA reporter | 654 |
| GUGUCCUAGUCGGCCGCCACUGGGUGCAAAAUAGAAGGAGCAUUGCACAUCAGUGAUGUUGAUGUCAGGACCGGGACUAGGGUGU [KL-SSTryp-B5 Brourdwalk1] | K4 kissing-loop RNA reporter | 597 |
| UGAGGGAUCUCGGCCGCCACUCGUGGGAAAUGGGCCUCAGGGAUAUAGUGAUGUUAUGUAAAGAAGAGGACCGGGAGAAGGAAGG [ExTryptoB.Dh] | K4 kissing-loop RNA reporter | 320 |
| GUAGGAUGAGGAGGAGGAUGAAUUACUGAAGGAGCGCAAAGAAAUGCAGGUAGGUCGCGGUAAAGAAGUAUAGUGAUGUUAUAUA [SSArgA.E] | K4 kissing-loop RNA reporter | 413 |
